- Test system: NCI-H460
- Test method notes: NCI tumour cell line growth inhibition, 48 h
Calls of active or inactive are those of the source. Rule as the data show it: active = GI50 up to about 1.1 µM and inactive = higher.
Classes used: yes for active, no for inactive

{"Compound": "CN1N=CSC12C(=O)N(c1ccccc1)C(=O)N2c1ccccc1 (stereo not given)", "Cat": "no"}
{"Compound": "Cc1ccc(S(=O)(=O)Oc2nc3nc4ccccc4nc3nc2OS(=O)(=O)c2ccc(C)cc2)cc1", "Cat": "no"}
{"Compound": "COC(=O)C1=C(C(=O)OC)C2(C)Nc3ccccc3C2=C(c2ccccc2)C1 (stereo not given)", "Cat": "no"}
{"Compound": "COC(=O)[C@@H](Cc1ccccc1)N1O[C@]12CCCC[C@@H]2NC(=O)OC(C)(C)C (stereo not given in full)", "Cat": "no"}
{"Compound": "C=CCCCCn1c2ccccc2c2c(C)c3c[n+](C)ccc3c(C)c21", "Cat": "yes"}
{"Compound": "O=C1/C(=C/c2ccccc2)Oc2cc(O)ccc21", "Cat": "no"}
{"Compound": "Cn1cc(-c2csc(-c3cn(C)c4ccccc34)n2)c2ccccc21", "Cat": "no"}
{"Compound": "c1ccc([P+](CCN2Cc3ccccc3C2)(c2ccccc2)c2ccccc2)cc1", "Cat": "no"}
{"Compound": "Nc1nc(CCC(=O)Nc2cccc(C(F)(F)F)c2)cc(-c2ccc3ccccc3c2)n1", "Cat": "no"}
{"Compound": "O=C(OC1CC(n2cc(F)c(=O)[nH]c2=O)OC1CSC(=O)c1ccccc1)c1ccccc1 (stereo not given)", "Cat": "no"}

###

- System: SF-295
- Test method notes: NCI tumour cell line growth inhibition, 48 h
Activity calls are given as the source filed them. Cut-off read from the data, not from the text of the source: active = GI50 up to about 1.1 µM and inactive = higher. Where a SMILES comes first, the peptide text is derived from it. The star is where a group is joined. CH2Cl = ClC*
Classes used: active, inactive

{"Compound": "O=C1C(Cl)N(c2ccccc2[N+](=O)[O-])C1c1c[nH]c2ccccc12 (stereo not drawn)", "System": "SF-295", "Cat": "inactive"}
{"Compound": "CCN(CC)CCNc1ccc2nnn3c4ccc(O)cc4c(=O)c1c23", "System": "SF-295", "Cat": "inactive"}
{"Compound": "O=C1c2ccccc2N(O)C1(c1ccccc1)C1CCCC=C1N1CCOCC1 (stereo not drawn)", "System": "SF-295", "Cat": "inactive"}
{"Compound": "C=C1CC(COc2ccc3c(C)c(C)c(=O)oc3c2C)(c2ccccc2)OC1=O (stereo not drawn)", "System": "SF-295", "Cat": "inactive"}
{"Compound": "CC(C)=NOC(=O)Nc1cccc2c1OCO2", "System": "SF-295", "Cat": "inactive"}
{"Compound": "CCOC(=O)c1ccc2nc(NC(=O)COC(=O)CSc3nc(C)cc(C)n3)sc2c1", "System": "SF-295", "Cat": "inactive"}
{"Compound": "C=C1C2CCCC1C1(S(C)(=O)=O)CCCCC21O (stereo not drawn)", "System": "SF-295", "Cat": "inactive"}
{"Compound": "CNC(=S)N1CCN(C(C)=O)C1=S", "System": "SF-295", "Cat": "inactive"}
{"Compound": "COC(=O)[C@@H]1CN(C(=O)CCc2ccccc2)C(=O)N1", "System": "SF-295", "Cat": "inactive"}
{"Compound": "C=CCc1cc2cccc(OC)c2oc1=O", "System": "SF-295", "Cat": "inactive"}
{"Compound": "Cc1n[nH]c(C(F)(F)F)c1/N=N/N1CCOCC1", "System": "SF-295", "Cat": "inactive"}
{"Compound": "C[C@]12CCC[C@H](O)[C@H]1C[C@H](CO)CC2", "System": "SF-295", "Cat": "inactive"}
{"Compound": "Cc1n(Cc2ccccc2)c2c([n+]1C)C(=O)c1ccccc1C2=O", "System": "SF-295", "Cat": "active"}
{"Compound": "CCC1=C(C)/C(=C/c2[nH]c(C(Br)Br)c(CC)c2C)N=C1C(Br)Br", "System": "SF-295", "Cat": "inactive"}
{"Compound": "NCCCNCCCCN1CC1", "System": "SF-295", "Cat": "inactive"}
{"Compound": "N#Cc1ccc(Oc2nc3ccccc3nc2C(=O)O)cc1", "System": "SF-295", "Cat": "inactive"}
{"Compound": "CC1CC2C3CCC4=CC(=O)C=CC4(C)C3(F)C(O)CC2(C)C1(O)C(=O)CO.Cc1cc(NS(=O)(=O)c2ccc(/N=N\\c3cc(/N=N/c4ccc(S(=O)(=O)Nc5cc(C)nc(C)n5)cc4)c(OC(=O)C(Cl)Cl)c4cccc(NC(=O)C(Cl)Cl)c34)cc2)nc(C)n1", "System": "SF-295", "Cat": "inactive"}
{"Compound": "Cc1cc(C(=O)NCCN(C)C)c2nc3ccccc3cc2c1", "System": "SF-295", "Cat": "inactive"}
{"Compound": "COc1c(C)c(O)c2c(c1C)OC(c1ccccc1)CC2=O (stereo not drawn)", "System": "SF-295", "Cat": "inactive"}
{"Compound": "CC1=C2C3OC(=O)C(C)C3CCC2(C)C=C/C1=N\\c1ccccc1 (stereo not drawn)", "System": "SF-295", "Cat": "inactive"}
{"Compound": "O=C1CSC(c2cc3cc(Br)ccc3nc2Cl)N1c1ccc(Cl)cc1 (stereo not drawn)", "System": "SF-295", "Cat": "inactive"}
{"Compound": "CN(C)CCCc1c[nH]c2ccccc12", "System": "SF-295", "Cat": "inactive"}
{"Compound": "CC(C)=CCC/C(C)=C/CO [GERANIOL]", "System": "SF-295", "Cat": "inactive"}
{"Compound": "COc1ccc(/N=C(C)/C(C)=N/c2ccc(OC)cc2)cc1", "System": "SF-295", "Cat": "inactive"}
{"Compound": "O=C1/C(=C\\c2ccc([N+](=O)[O-])o2)SC2NC(COc3ccc(Cl)cc3)=NN12 (stereo not drawn)", "System": "SF-295", "Cat": "inactive"}
{"Compound": "COC1=CC(=O)C2C(C1=O)[C@@H]1c3ccccc3C[C@H]21 (stereo partly drawn)", "System": "SF-295", "Cat": "inactive"}
{"Compound": "Cc1cc2c(=O)cc(-c3ccc(C(=O)O)cc3)oc2c(C(=O)O)c1C", "System": "SF-295", "Cat": "inactive"}
{"Compound": "CC(=O)NC(CC(C)C)C(=O)NC(Cc1ccccc1)C(=O)CCl (stereo not drawn) (Ac-Leu-Phe-CH2Cl; configuration not given here)", "System": "SF-295", "Cat": "inactive"}
{"Compound": "CSc1nc(O)c(C#N)c(-c2ccc(Cl)cc2)n1", "System": "SF-295", "Cat": "inactive"}
{"Compound": "O=c1cc(-c2ccccc2)oc2cc(OCC(O)COc3ccc4c(=O)cc(-c5ccccc5)oc4c3)ccc12", "System": "SF-295", "Cat": "inactive"}
{"Compound": "N#Cc1nc(-c2cc([N+](=O)[O-])cc([N+](=O)[O-])c2)oc1N", "System": "SF-295", "Cat": "inactive"}
{"Compound": "Cn1c(=O)nc2n(-c3ccc(Cl)cc3)c3cc(Cl)ccc3nc-2c1=O", "System": "SF-295", "Cat": "inactive"}
{"Compound": "COC(=O)C1=C(C(=O)OC)N(c2ccncc2)C(c2ccco2)=CC1c1ccccc1[N+](=O)[O-] (stereo not drawn)", "System": "SF-295", "Cat": "inactive"}
{"Compound": "CCOC(=O)NN(C(=O)OCC)c1ccc(/N=N/c2ccc(OC)cc2)n1C", "System": "SF-295", "Cat": "inactive"}
{"Compound": "CCOP(=O)(OCC)C(N)Cc1ccc(OC)c(OC)c1 (stereo not drawn)", "System": "SF-295", "Cat": "inactive"}
{"Compound": "Clc1ncnc2c1nc(C#Cc1ccccc1)n2C1CCCCO1 (stereo not drawn)", "System": "SF-295", "Cat": "inactive"}
{"Compound": "Cc1c(/C=N/NC(=S)Nc2ccc([N+](=O)[O-])cc2)c(=O)n(-c2ccccc2)n1C", "System": "SF-295", "Cat": "inactive"}
{"Compound": "CC(=O)OC1CC2Oc3ccc(C)cc3C(C)(O2)C1=O (stereo not drawn)", "System": "SF-295", "Cat": "inactive"}
{"Compound": "CC(C)C(/N=C1\\CC2CCC1(C(=O)Nc1ccccc1O)C2(C)C)c1ccccc1 (stereo not drawn)", "System": "SF-295", "Cat": "inactive"}
{"Compound": "C=CCCN1CCc2c([nH]c3ccccc23)C1C(=O)O (stereo not drawn)", "System": "SF-295", "Cat": "inactive"}
{"Compound": "O=C(CCN1CCCC1)Nc1ccc2sc3ccccc3c(=O)c2n1", "System": "SF-295", "Cat": "inactive"}
{"Compound": "O=C(N/N=C/c1c(-c2ccccc2)no[n+]1[O-])N1CCOCC1", "System": "SF-295", "Cat": "inactive"}
{"Compound": "C=C1CC2(CCS(=O)(=O)c3ccccc32)OC1=O (stereo not drawn)", "System": "SF-295", "Cat": "inactive"}
